Below is a list of entries, each paired with its recorded mass density value.
# cond: 303.15 K; 1000 kPa; Liquid; Vibrating tube method
Answer with a number only, understood to be in kg/m3.

q: Return reported mass density. Input molecule: COCC(C)OCC(C)OC (stereo not given) [2-methoxy-1-(2-methoxy-1-methylethoxy)propane]
a: 894

q: Return reported mass density. Input molecule: CCCCOCCOCCOCCOCCCC [5,8,11,14-tetraoxaoctadecane]
a: 909.4

q: Return reported mass density. Input molecule: CCOCCOCC [1,2-diethoxyethane]
a: 842.6

q: Return reported mass density. Input molecule: CCOCCOCCOCC [diethylene glycol diethyl ether]
a: 898.4

Field: next molecule
q: Return reported mass density. Input molecule: CCCCOCCOCCOCCCC [5,8,11-trioxapentadecane]
a: 875

====

# cond: 303.15 K; 101.33 kPa; Liquid; Capillary tube (Ostwald / Ubbelohde) method
readout.kind: kinematic viscosity
State the value with its unit after it.

// below: answered compounds
q: Return reported kinematic viscosity. Input compound: "CCCCOCCOCCOCCOCCCC"
a: 3.3e-06 m2/s

q: Return reported kinematic viscosity. Input compound: "CCCCOCCOCCOCCCC"
a: 2.21e-06 m2/s

q: Return reported kinematic viscosity. Input compound: COCC(C)OCC(C)OC (centres undefined)
a: 1.03e-06 m2/s

Field: next compound
q: Return reported kinematic viscosity. Input compound: "CCOCCOCCOCC"
a: 1.27e-06 m2/s

====

# method: molar heat capacity at constant pressure
# cond: 391.78 K; 1000 kPa; Liquid
readout.kind: molar heat capacity at constant pressure (J/K/mol)
Answer with a number only, understood to be in J/K/mol.

q: Return reported molar heat capacity at constant pressure. Input compound: COCC(C)OCC(C)OC (centres undefined)
a: 364.69

q: Return reported molar heat capacity at constant pressure. Input compound: "CCCCOCCOCCOCCCC"
a: 500.42

q: Return reported molar heat capacity at constant pressure. Input compound: "CCCCOCCOCCOCCOCCCC"
a: 589.58

Field: next compound
q: Return reported molar heat capacity at constant pressure. Input compound: "CCOCCOCCOCC"
a: 372.15

====

# method: molar heat capacity at constant pressure
# cond: 381.88 K; 1000 kPa; Liquid
Below is a list of entries, each paired with its recorded molar heat capacity at constant pressure value.
Answer with a number only, understood to be in J/K/mol.

q: Return reported molar heat capacity at constant pressure. Input compound: COCC(C)OCC(C)OC (centres undefined)
a: 359.49

---
q: Return reported molar heat capacity at constant pressure. Input compound: "CCOCCOCCOCC"
a: 368.9

q: Return reported molar heat capacity at constant pressure. Input compound: "CCCCOCCOCCOCCCC"
a: 493.65

q: Return reported molar heat capacity at constant pressure. Input compound: "CCCCOCCOCCOCCOCCCC"
a: 584.33

====

Below is a list of entries, each paired with its recorded kinematic viscosity value.
# cond: 373.15 K; 101.33 kPa; Liquid; Capillary tube (Ostwald / Ubbelohde) method
Answer with a number only, understood to be in m2/s.

// below: answered compounds
q: Return reported kinematic viscosity. Input compound: "CCOCCOCCOCC"
a: 5.77e-07

q: Return reported kinematic viscosity. Input compound: COCC(C)OCC(C)OC (centres undefined)
a: 5.06e-07

q: Return reported kinematic viscosity. Input compound: "CCCCOCCOCCOCCCC"
a: 8.72e-07

Field: next compound
q: Return reported kinematic viscosity. Input compound: "CCCCOCCOCCOCCOCCCC"
a: 1.17e-06

====

Below is a list of entries, each paired with its recorded molar heat capacity at constant pressure value.
# method: molar heat capacity at constant pressure
# cond: 332.37 K; 1000 kPa; Liquid
Numbers after ± are expanded uncertainties.

q: Return reported molar heat capacity at constant pressure. Input compound: "CCOCCOCCOCC"
a: 353.33 ± 2.8 J/K/mol

q: Return reported molar heat capacity at constant pressure. Input compound: "CCCCOCCOCCOCCOCCCC"
a: 553.9 ± 4.5 J/K/mol

q: Return reported molar heat capacity at constant pressure. Input compound: "CCCCOCCOCCOCCCC"
a: 465.49 ± 3.7 J/K/mol

q: Return reported molar heat capacity at constant pressure. Input compound: COCC(C)OCC(C)OC (centres undefined)
a: 336.62 ± 3.4 J/K/mol

====

# cond: 333.15 K; 1000 kPa; Liquid; Vibrating tube method
Below is a list of entries, each paired with its recorded mass density value.
Answer with a number only, understood to be in kg/m3.

// below: answered compounds
q: Return reported mass density. Input compound: "CCOCCOCCOCC"
a: 870

q: Return reported mass density. Input compound: "CCOCCOCC"
a: 811.6

q: Return reported mass density. Input compound: "CCCCOCCOCCOCCOCCCC"
a: 884.8

---
q: Return reported mass density. Input compound: COCC(C)OCC(C)OC (stereo not given)
a: 866

q: Return reported mass density. Input compound: "CCCCOCCOCCOCCCC"
a: 850.4

====

# method: molar heat capacity at constant pressure
# cond: 312.57 K; 1000 kPa; Liquid
Below is a list of entries, each paired with its recorded molar heat capacity at constant pressure value.
Answer with a number only, understood to be in J/K/mol.

q: Return reported molar heat capacity at constant pressure. Input molecule: "CCCCOCCOCCOCCOCCCC"
a: 544.45

---
q: Return reported molar heat capacity at constant pressure. Input molecule: "CCOCCOCCOCC"
a: 349.11

q: Return reported molar heat capacity at constant pressure. Input molecule: "CCCCOCCOCCOCCCC"
a: 456.53

q: Return reported molar heat capacity at constant pressure. Input molecule: COCC(C)OCC(C)OC (centres undefined)
a: 328.67

====

Below is a list of entries, each paired with its recorded mass density value.
# cond: 363.15 K; 1000 kPa; Liquid; Vibrating tube method
Numbers after ± are expanded uncertainties.

q: Return reported mass density. Input compound: "CCOCCOCCOCC"
a: 840.2 ± 8 kg/m3

q: Return reported mass density. Input compound: "CCCCOCCOCCOCCCC"
a: 824.9 ± 8 kg/m3

q: Return reported mass density. Input compound: COCC(C)OCC(C)OC (stereo not given)
a: 837 ± 8 kg/m3

q: Return reported mass density. Input compound: "CCOCCOCC"
a: 779.6 ± 0.8 kg/m3

q: Return reported mass density. Input compound: "CCCCOCCOCCOCCOCCCC"
a: 859.8 ± 8 kg/m3

====

# cond: 403.15 K; 1000 kPa; Liquid; Vibrating tube method
readout.kind: mass density (kg/m3)
Answer with a number only, understood to be in kg/m3.

// below: answered molecules
q: Return reported mass density. Input molecule: "CCCCOCCOCCOCCCC"
a: 790.8

q: Return reported mass density. Input molecule: "CCCCOCCOCCOCCOCCCC"
a: 826.1

q: Return reported mass density. Input molecule: COCC(C)OCC(C)OC (stereo not given)
a: 797.1

q: Return reported mass density. Input molecule: "CCOCCOCC"
a: 734

Field: next molecule
q: Return reported mass density. Input molecule: "CCOCCOCCOCC"
a: 800

====

# cond: 413.15 K; 1000 kPa; Liquid; Vibrating tube method
readout.kind: mass density (kg/m3)
Answer with a number only, understood to be in kg/m3.

q: Return reported mass density. Input compound: "CCCCOCCOCCOCCCC"
a: 782.1

q: Return reported mass density. Input compound: "CCOCCOCC"
a: 721.8

q: Return reported mass density. Input compound: "CCOCCOCCOCC"
a: 789.7

q: Return reported mass density. Input compound: COCC(C)OCC(C)OC (stereo not given)
a: 786.8

q: Return reported mass density. Input compound: "CCCCOCCOCCOCCOCCCC"
a: 817.6

====

Below is a list of entries, each paired with its recorded kinematic viscosity value.
# cond: 423.15 K; 101.33 kPa; Liquid; Capillary tube (Ostwald / Ubbelohde) method
Answer with a number only, understood to be in m2/s.

// below: answered compounds
q: Return reported kinematic viscosity. Input compound: "CCCCOCCOCCOCCCC"
a: 5.78e-07

q: Return reported kinematic viscosity. Input compound: COCC(C)OCC(C)OC (centres undefined)
a: 3.59e-07

---
q: Return reported kinematic viscosity. Input compound: "CCCCOCCOCCOCCOCCCC"
a: 7.37e-07

q: Return reported kinematic viscosity. Input compound: "CCOCCOCCOCC"
a: 4.02e-07

====

# method: molar heat capacity at constant pressure
# cond: 421.48 K; 1000 kPa; Liquid
Below is a list of entries, each paired with its recorded molar heat capacity at constant pressure value.
Answer with a number only, understood to be in J/K/mol.

q: Return reported molar heat capacity at constant pressure. Input compound: "CCCCOCCOCCOCCOCCCC"
a: 612.15

---
q: Return reported molar heat capacity at constant pressure. Input compound: COCC(C)OCC(C)OC (centres undefined)
a: 381.23

q: Return reported molar heat capacity at constant pressure. Input compound: "CCCCOCCOCCOCCCC"
a: 517.89

q: Return reported molar heat capacity at constant pressure. Input compound: "CCOCCOCCOCC"
a: 384.8
